Across several studies, compounds have been characterized by their IC50 on Prostaglandin G/H synthase 1 (Homo sapiens, UniProt P23219); a selection follows.
Sequence (P23219 whole entry): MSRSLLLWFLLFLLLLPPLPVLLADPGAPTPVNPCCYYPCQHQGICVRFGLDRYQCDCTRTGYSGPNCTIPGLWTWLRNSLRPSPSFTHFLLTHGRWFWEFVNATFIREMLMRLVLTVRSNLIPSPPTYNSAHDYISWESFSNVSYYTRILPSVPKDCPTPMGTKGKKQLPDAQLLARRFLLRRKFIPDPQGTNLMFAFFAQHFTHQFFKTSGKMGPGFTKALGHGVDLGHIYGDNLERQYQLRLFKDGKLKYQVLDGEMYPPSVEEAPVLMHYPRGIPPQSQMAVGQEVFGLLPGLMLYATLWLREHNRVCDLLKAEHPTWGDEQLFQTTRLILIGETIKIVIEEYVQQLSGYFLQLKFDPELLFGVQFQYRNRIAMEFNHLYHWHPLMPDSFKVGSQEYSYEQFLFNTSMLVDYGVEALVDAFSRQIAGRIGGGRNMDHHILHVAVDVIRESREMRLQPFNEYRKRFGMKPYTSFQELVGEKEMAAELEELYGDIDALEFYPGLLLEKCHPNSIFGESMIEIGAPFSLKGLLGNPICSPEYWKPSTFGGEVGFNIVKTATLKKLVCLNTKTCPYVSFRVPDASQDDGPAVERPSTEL

State IC50 (Prostaglandin G/H synthase 1 (Homo sapiens, UniProt P23219)) of CCCCC(=C(c1ccccc1)c1ccccc1)c1ccc(S(C)(=O)=O)cc1 . > 100 µM

Further cases:
State IC50 (Prostaglandin G/H synthase 1 (Homo sapiens, UniProt P23219)) of CCC1SCC(=O)N1c1c(C#N)c2n(c1C(=O)Nc1ccc(C)cc1)CCC2 (stereo not drawn) . > 100 µM

State IC50 (Prostaglandin G/H synthase 1 (Homo sapiens, UniProt P23219)) of Cc1ccc(-n2nc(COC(=O)COc3cc(O)c4c(=O)cc(-c5ccccc5)oc4c3)cc2-c2ccc([N+](=O)[O-])cc2)cc1 . 44.8 µM

State IC50 (Prostaglandin G/H synthase 1 (Homo sapiens, UniProt P23219)) of Nc1ccc(NC(=O)c2ccccc2C(F)(F)F)cc1 . > 100 µM

---

Across several studies, compounds have been characterized by their IC50 on Prostaglandin G/H synthase 1 (Homo sapiens, UniProt P23219); a selection follows.
Endpoint Name: IC50 (µM)

Field: example entries. Status: answers known.
Look up IC50 of C[C@H]1C[C@@H]1Cn1ncc(-c2ccc(S(C)(=O)=O)cc2)c(-c2ccc(F)cc2)c1=O and report it. 3

Look up IC50 of CCc1cc(OC(F)(F)F)cc2c1O[C@@H](C(F)(F)F)C(C(=O)O)=C2 and report it. 100

Look up IC50 of CS(=O)(=O)c1ccc(-c2cnn(Cc3cccnc3)c(=O)c2-c2ccccc2)cc1 and report it. 10

Look up IC50 of Oc1ccc(/C=C/c2cccc(F)c2)cc1O and report it. 11.5

Look up IC50 of CC1(C)OC(=O)C(Oc2ccc(F)cn2)=C1c1ccc(S(C)(=O)=O)cc1 and report it. 4.6

I: Cc1ccc2c(c1)oc(=O)n2Cc1cn(-c2ccc(F)cc2)nn1
II: Nc1ccccc1C(=O)Nc1ccc(C(F)(F)F)cc1
Which has the higher IC50, I or II ? Give the label under which the chosen entry appears. I
(I: 175 µM, II: 16 µM)

I: Cc1ccc(S(=O)(=O)N2N=C(C(F)(F)F)CC2c2ccc3c(c2)OCCO3)cc1 (stereo unspecified)
II: COc1cc(Cl)c2c(c1)C=C(C(=O)O)C(C(F)(F)F)O2 (stereo unspecified)
III: COc1ccc(-n2c(-c3ccc(S(N)(=O)=O)cc3)coc2=O)cc1
IV: COc1ccc(/C=C/c2cc(OC)cc(OC)c2/C=C/C(=O)NC(C)C)cc1
V: CC/C(=C\c1ccc(N(C)C)cc1)c1cc(O)cc(O)c1
Ordering: ascending IC50. Note for the reader: the ranking is given by listing the labels in the order requested. III, I, V, II, IV
(III: 0.9 µM, I: 4.63 µM, V: 7.4 µM, II: 25.6 µM, IV: 40.4 µM)

A: O=C(COc1cc(O)c2c(=O)cc(-c3ccccc3)oc2c1)OCc1cc(-c2ccc(Cl)c(Cl)c2)n(-c2ccc(Cl)cc2)n1
B: CCCS(=O)(=O)Nc1ccncc1Oc1ccccc1
C: CC(C)c1cc(-c2ccc(S(N)(=O)=O)cc2)c(-c2ccc(F)cc2)s1
D: NS(=O)(=O)c1ccc(C2=C(c3ccc(Cl)c(Cl)c3)CC3(CC3)C2)cc1
Highest IC50 first, then in falling order down to the smallest. Note for the reader: the ranking is given by listing the labels in the order requested. A, B, D, C
(A: 33.1 µM, B: 18.4 µM, D: 0.38 µM, C: 0.23 µM)

P: Nc1ccc(C(=O)Nc2ccc(C(F)(F)F)cc2)cc1
Q: NS(=O)(=O)c1ccc(-c2coc(=O)n2-c2ccc(F)cc2F)cc1
R: COc1ccc(-c2cc(COC(=O)COc3cc(O)c4c(=O)cc(-c5ccccc5)oc4c3)nn2-c2ccc(Cl)cc2)cc1
S: CCS(=O)(=O)Nc1ccncc1Oc1ccccc1
Ordering: ascending IC50. Note for the reader: the ranking is given by listing the labels in the order requested. S, Q, P, R

1: O=C(O)C1=Cc2cc(OC(F)(F)F)ccc2OC1C(F)(F)F (stereo unspecified)
2: Fc1ccc2c(C3CCN(CC4=NO[C@@H]5CCCC[C@@H]5[C@H]4c4ccccc4)CC3)noc2c1
Of 1 and 2 , which shows the smaller IC50 value? Give the label under which the chosen entry appears. 1
(1: 17 µM, 2: 42.8 µM)
